- Tested on: SK-MEL-2 melanoma
- measurement description: NCI-60 one-dose screen, 48 h
- cond: 10 µM unless noted
About 83,000 compounds went through this panel and 20% of them were active in at least one assay; those are over-represented in the sample as a whole. Calls of active or inactive are those of the source. The calls were made as follows: active = growth percent below 10; inactive = the rest.
Valid outcomes are listed here; reply with one: YES = active, NO = inactive

Exercise: Kindly provide the recorded test outcome for the following compound: COc1ccc(C2=NN(C(C)=O)C(c3ccc(OCc4ccc(Cl)cc4)c(OC)c3)C2)cc1OC (configuration not stated)
Key: NO

Exercise: Kindly provide the recorded test outcome for the following compound: O=c1[nH]n(C(=S)N/N=C/c2ccccc2Cl)c(=O)c2ccccc12
Key: YES

Exercise: Kindly provide the recorded test outcome for the following compound: COc1ccc(NC(=O)Cn2c(O)c(N=Nc3ccc(S(N)(=O)=O)cc3)c3ccccc32)cc1
Key: NO

Exercise: Kindly provide the recorded test outcome for the following compound: COc1ccc(/C=C2\C(=N)N=C(SCc3nc4ccccc4[nH]3)NC2=O)cc1
Key: NO

Exercise: Kindly provide the recorded test outcome for the following compound: C#CCOc1cc(N(CC)CC)ccc1C(C(=O)NC(C)(C)C)N(C(=O)C1CCc2cc(F)ccc2O1)c1cc(C)cc(C)c1 (configuration not stated)
Key: YES

Exercise: Kindly provide the recorded test outcome for the following compound: Cn1cc(-c2cc3nc(-c4cn(C)c5ncccc45)cc(N)n3n2)c2ccccc21
Key: NO

Exercise: Kindly provide the recorded test outcome for the following compound: Cc1ccc(S(=O)(=O)c2nc(S(=O)(=O)c3ccc(C)cc3)c(N3CCN(C)CC3)s2)cc1
Key: NO

Exercise: Kindly provide the recorded test outcome for the following compound: COc1ccc(C(=O)Nc2n[nH]c(Nc3ccccc3)c2C#N)cc1
Key: NO

Exercise: Kindly provide the recorded test outcome for the following compound: Cc1cc2nc3c([nH]c2cc1C)c1ccc(=O)cc1n3CCN(C)C
Key: NO

Exercise: Kindly provide the recorded test outcome for the following compound: Cc1cc(C)n(-c2ccc3nnc(-c4ccccc4)n3n2)n1
Key: NO

Exercise: Kindly provide the recorded test outcome for the following compound: COC(=O)C[C@](O)(CCCC(C)(C)O)C(=O)O[C@H]1C(OC)=C[C@@]23CCCN2CCc2cc4c(cc2[C@@H]13)OCO4
Key: YES

Exercise: Kindly provide the recorded test outcome for the following compound: COc1ccc2[nH]c(O)c(N=NC(=O)Cn3c(-c4ccccc4)nc4cc(C)ccc43)c2c1
Key: NO

Exercise: Kindly provide the recorded test outcome for the following compound: N#Cc1cnn(C(=O)c2ccccc2Br)c1NC(=O)c1ccc(Br)cc1Cl
Key: NO

Exercise: Kindly provide the recorded test outcome for the following compound: CN(C)c1ccnc(NCCCSC(c2ccccc2)(c2ccccc2)c2ccccc2)c1
Key: NO

Exercise: Kindly provide the recorded test outcome for the following compound: C(=C\c1cc(/C=C/c2ccccc2)c2ccccc2n1)/c1ccccc1
Key: NO

Exercise: Kindly provide the recorded test outcome for the following compound: CNC(=O)c1cccc(NC(=O)c2ccc3c(c2)nnn3/C(C#N)=C/c2ccccn2)c1
Key: YES

Exercise: Kindly provide the recorded test outcome for the following compound: COc1ccc2nc(Nc3cccc(NC(=O)c4ccc(CN5CCCN(C)CC5)c(C(F)(F)F)c4)c3)ccc2c1
Key: YES

Exercise: Kindly provide the recorded test outcome for the following compound: NS(=O)(=O)c1ccc(-n2cc(-c3cccc(NC(=O)c4ccc(Cl)c(C(F)(F)F)c4)c3)nn2)cc1
Key: NO

Exercise: Kindly provide the recorded test outcome for the following compound: Cc1cccc(NC(=O)CN2CCN(c3ncnc4c3cnn4-c3ccccc3)CC2)c1
Key: NO

Exercise: Kindly provide the recorded test outcome for the following compound: OCC1(CCCc2ccccc2)CCCN(c2nccc3ccccc23)C1 (configuration not stated)
Key: NO

Exercise: Kindly provide the recorded test outcome for the following compound: Cn1cc(-c2nnc(N)nc2-c2c[nH]c3ccc(F)cc23)c2cccnc21
Key: NO

Exercise: Kindly provide the recorded test outcome for the following compound: CN(C)c1ccnc(CNCCSC2(c3ccccc3)c3ccccc3C=Cc3ccccc32)c1
Key: YES

Exercise: Kindly provide the recorded test outcome for the following compound: C=C1CCC2C3(C)COC(c4ccccc4F)OC3CCC2(C)C1CC(O)C1=CCOC1=O (configuration not stated)
Key: NO

Exercise: Kindly provide the recorded test outcome for the following compound: c1ccc(-c2csc(Nc3cccc(Nc4nc(-c5ccccc5)cs4)c3)n2)cc1
Key: NO

Exercise: Kindly provide the recorded test outcome for the following compound: CC(=O)Nc1ccc(-c2cn(-c3cccc(C(=O)Nc4ccc(N5CCN(C)CC5)cc4)c3)nn2)cn1
Key: NO

Exercise: Kindly provide the recorded test outcome for the following compound: N#Cc1ccc(C(=O)Nn2c(N)cc3ccccc3c2=O)cc1
Key: NO

Exercise: Kindly provide the recorded test outcome for the following compound: Clc1cccc(-c2ccc(OCCCN3CCN(c4ccncc4)CC3)cc2)c1
Key: NO

Exercise: Kindly provide the recorded test outcome for the following compound: C=C1CC[C@@H]2[C@]3(C)COC(c4cn[nH]c4-c4cccc(Cl)c4)O[C@@H]3CC[C@@]2(C)[C@@H]1C/C=C1/C(=O)OCC1O (some centres not stated)
Key: YES

Exercise: Kindly provide the recorded test outcome for the following compound: Cc1ccc(C(=O)CSc2nc3ccc(F)cc3c(=O)n2-c2ccc(Cl)cc2)cc1
Key: NO

Exercise: Kindly provide the recorded test outcome for the following compound: Cc1ccc(C2CC(c3ccc(S(=O)(=O)NCCNc4nc(Nc5ccc(F)cc5)nc(N(C)C)n4)cc3)=Nc3c(N)nc(N)nc3N2)cc1 (configuration not stated)
Key: NO

Exercise: Kindly provide the recorded test outcome for the following compound: Cc1cc2nc3c4ccccc4n(CCCN(C)C)c3nc2cc1C
Key: YES

Exercise: Kindly provide the recorded test outcome for the following compound: COc1cc2c(c(OC)c1OC)C(=O)CC(c1cccc(NC(=O)c3cc(NC(=O)[C@H](C)N)ccc3Cl)c1)O2 (some centres not stated)
Key: NO

Exercise: Kindly provide the recorded test outcome for the following compound: CN(C)c1nc(NCCNS(=O)(=O)c2ccc(C3=Nc4c(N)nc(N)nc4NC(c4ccccc4)C3)cc2)nc(Nc2ccc(F)cc2)n1 (configuration not stated)
Key: NO

Exercise: Kindly provide the recorded test outcome for the following compound: COc1ccc2[nH]cc(-c3nnc(N)nc3-c3cn(C)c4ncc(Br)cc34)c2c1
Key: NO

Exercise: Kindly provide the recorded test outcome for the following compound: CC(=O)c1c(N)c(C#N)cn1-c1ccc(Cl)cc1Cl
Key: NO

Exercise: Kindly provide the recorded test outcome for the following compound: COc1cc2oc(-c3cccc(C(=O)Nc4ccc(Cl)cc4)c3)cc(=O)c2c(OCCNC(=O)[C@@H](N)CCC(=O)O)c1OC
Key: NO

Exercise: Kindly provide the recorded test outcome for the following compound: CC(C)Sc1nc(NCCc2c[nH]c3ccccc23)c(C#N)c(-c2ccccc2)n1
Key: NO

###

- Tested on: UACC-257 melanoma
- measurement description: NCI-60 one-dose screen, 48 h (100 = growth as untreated, 0 = no growth, -100 = all killed)
- cond: 10 µM unless noted
- Method: Cells are grown in 96 well plates and exposed to the test compound for 48 hours. Compounds are tested at a single concentration, which is 10^-5 M for most compounds. The reported endpoint is percent growth (GI% or GIPRCNT), where numbers from 0 - 100% represent growth inhibition, and numbers from -100% - 0 represent cell death. For example, a value of 40 represents 60% growth inhibition. A value of 0 means no net growth occurred over the course of the experiment. […]
The panel holds about 83,000 compounds, 20% with a hit somewhere; the sample as a whole holds those more often.
Binarize growth at 70%; below is true (1), at or above is false (0).

Exercise: Could you please tell me whether growth recorded for COc1cc2c(c(OC)c1OC)C(=O)CC(c1cccc(NC(=O)c3cccc(NC(=O)[C@H](C)NC(=O)OC(C)(C)C)c3)c1)O2 (stereo not given in full) is less than 70%?
Key: false (0)

Exercise: Could you please tell me whether growth recorded for Cc1ccc2c(c1)nc(-c1ccccc1)n2CC(=O)N=Nc1c(O)[nH]c2ccc(Br)cc12 is less than 70%?
Key: true (1)

Exercise: Could you please tell me whether growth recorded for O=c1[nH]n(C(=S)N/N=C/c2ccccc2Cl)c(=O)c2ccccc12 is less than 70%?
Key: true (1)

###

- System: IGROV1 ovarian
- measurement description: NCI-60 one-dose screen, 48 h (100 = growth as untreated, 0 = no growth, -100 = all killed)
- cond: 10 µM unless noted
The panel holds about 83,000 compounds, 20% with a hit somewhere; the sample as a whole holds those more often.
Binarize growth at 80%; below is met, at or above is not met.

Exercise: Could you please tell me whether growth recorded for CC(=O)Oc1ccccc1C(=O)[Se]C(=NC1CCCCC1)NC1CCCCC1 is less than 80%?
Key: met

Exercise: Could you please tell me whether growth recorded for COc1cc(C2CC(c3cc(OC)c(OC)c(OC)c3)=Nc3c(N)nc(N)nc3N2)ccc1Oc1nc(NCCO)nc(N2CCOCC2)n1 (stereo not drawn) is less than 80%?
Key: not met

Exercise: Could you please tell me whether growth recorded for CCOC(=O)C1=C(N)N(c2ccccc2)C2=C(C(=O)CC(C)(C)C2)C1c1ccc([N+](=O)[O-])cc1 (stereo not drawn) is less than 80%?
Key: not met

Exercise: Could you please tell me whether growth recorded for O=C(Cn1nc(-c2ccccc2)ccc1=O)N/N=C/c1ccc(N2CCOCC2)cc1 is less than 80%?
Key: not met

Exercise: Could you please tell me whether growth recorded for CN(C)c1ccnc(CNCCSC2(c3ccc(C(F)(F)F)cc3)c3ccccc3C=Cc3ccccc32)c1 is less than 80%?
Key: met

Exercise: Could you please tell me whether growth recorded for Cn1cc(-c2cc3nc(-c4cn(C)c5ncc(Br)cc45)cc(N)n3n2)c2ccccc21 is less than 80%?
Key: met

Exercise: Could you please tell me whether growth recorded for CC1(C)CC[C@]2(C(=O)O)CC[C@]3(C)C(=CCC4[C@@]5(C)C[C@@H](O)[C@@H]6OC(c7ccc(F)cc7)OC[C@@]6(C)C5CC[C@]43C)C2C1 (stereo partly drawn) is less than 80%?
Key: met
